Origin of the recorded values: patent US20070027150A1

- target.desc: His-tagged N-terminal ATP binding domain (amino acid residues 9-236) of HSP90α (Homo sapiens, UniProt P07900)
- assay.info: HSP90 inhibitor binding potency: TRF competition binding assay
- particulars: Table II; read-out: Hsp90 IC50 Range
pIC50: −log10 of the molar value.
parameter: pIC50

Quick one: give measured pIC50 for COc1cccc(-n2cc(C(F)(F)F)nc2C2CC(=O)c3c(C)nc(N)nc3C2)n1 (stereo not shown)
> 6.00

Quick one: give measured pIC50 for Cc1nc(N)nc2c1C(=O)CC(c1ncsc1-c1cccc(F)n1)C2 (stereo not shown)
> 6.00

Quick one: give measured pIC50 for COc1ncc(-c2cc(F)ccc2C2CC(=O)c3c(C)nc(N)nc3C2)nc1OC (stereo not shown)
> 6.00

Quick one: give measured pIC50 for Cc1nc(N)nc2c1C(=O)CC(c1ccc(F)cc1OCc1ccccc1)C2 (stereo not shown)
5.00 to 6.00

###

Give IC50 for every item shown.
- target.desc: His-tagged N-terminal ATP binding domain (amino acid residues 9-236) of HSP90α (Homo sapiens)
- assay.info: HSP90 inhibitor binding potency: TRF competition binding assay
- particulars: Table II; read-out: Hsp90 IC50 Range

Quick one: give measured IC50 for CCc1nc(N)nc2c1C(=O)CC(c1ccc(F)cc1-c1cccc(OC)c1F)C2 (stereo not shown) [Compound 320]
> 10000 nM

Quick one: give measured IC50 for COc1cncc(-c2ccc(F)cc2C2CC(=O)c3c(C)nc(N)nc3C2)n1 (stereo not shown) [Compound 286]
1000 to 10000 nM

Quick one: give measured IC50 for COc1cncc(-c2cc(F)ccc2[C@@H]2CC(=O)c3c(C)nc(N)nc3C2)n1 [Compound 226]
< 1000 nM

Quick one: give measured IC50 for Cc1nc(N)nc2c1C(=O)CC(c1ccc(Cl)cc1-c1cncnc1)C2 (stereo not shown) [Compound 250]
< 1000 nM

###

Give pIC50 for every item shown.
- target.desc: His-tagged N-terminal ATP binding domain (amino acid residues 9-236) of HSP90α (Homo sapiens, UniProt P07900)
- assay.info: HSP90 inhibitor binding potency: TRF competition binding assay
- particulars: Table I; read-out: Hsp90 IC50 Range
pIC50: −log10 of the molar value.

Quick one: give measured pIC50 for CCOc1cccc(-c2ccccc2C2CC(=O)c3c(C)nc(N)nc3C2)n1 (stereo not drawn) [Compound 94]
5.00 to 6.00

Quick one: give measured pIC50 for Cc1nc(N)nc2c1C(=O)CC(c1c(O)cccc1-c1cccnc1F)C2 (stereo not drawn) [Compound 170]
> 6.00

Quick one: give measured pIC50 for Cc1nc(N)nc2c1C(=O)CC(c1ccccc1Oc1cncnc1)C2 (stereo not drawn) [Compound 142]
> 6.00

Quick one: give measured pIC50 for Cc1nc(N)nc2c1C(=O)CC(c1cccc(-c3cccnc3)c1)C2 (stereo not drawn) [Compound 29]
< 5.00

Quick one: give measured pIC50 for Cc1nc(N)nc2c1C(=O)CC(c1ccccc1-c1ccccc1OC(F)(F)F)C2 (stereo not drawn) [Compound 111]
> 6.00

Quick one: give measured pIC50 for Cc1nc(N)nc2c1C(=O)CC(c1ccc(F)cc1Br)C2 (stereo not drawn) [Compound 16]
> 6.00

Quick one: give measured pIC50 for Cc1nc(N)nc2c1C(=O)CC(c1ccccc1-c1ccc(F)cn1)C2 (stereo not drawn) [Compound 123]
> 6.00

Quick one: give measured pIC50 for Cc1nc(N)nc2c1C(=O)CC(c1cnccc1Oc1ccccc1)C2 (stereo not drawn) [Compound 24]
> 6.00

Quick one: give measured pIC50 for Cc1nc(N)nc2c1C(=O)CC(c1ccccc1-c1cccc(NS(C)(=O)=O)c1)C2 (stereo not drawn) [Compound 114]
5.00 to 6.00

###

- target.desc: His-tagged N-terminal ATP binding domain (amino acid residues 9-236) of HSP90α (Homo sapiens, UniProt P07900)
- assay.info: HSP90 inhibitor binding potency: TRF competition binding assay
- particulars: Table II; read-out: Hsp90 IC50 Range
pIC50: −log10 of the molar value.
parameter: pIC50

Quick one: give measured pIC50 for COc1cccc(-c2cc(Cl)ccc2C2CC(=O)c3c(C)nc(N)nc3C2)n1 (centres unmarked)
> 6.00

Quick one: give measured pIC50 for Cc1nc(N)nc2c1C(=O)CC(c1ccc(F)cc1-c1cccc(C(F)(F)F)n1)C2 (centres unmarked)
> 6.00

Quick one: give measured pIC50 for `COc1nc(-c2cc(F)ccc2[C@@H]2CC(=O)c3c(C)nc(N)nc3C2)ncc1F`
> 6.00

Quick one: give measured pIC50 for Cc1nc(N)nc2c1C(=O)CC(c1ccccc1S(=O)(=O)N1CCCC1)C2 (centres unmarked)
5.00 to 6.00

Quick one: give measured pIC50 for Cc1nc(N)nc2c1C(=O)CC(c1nccn1-c1ccc(Cl)cc1F)C2 (centres unmarked)
5.00 to 6.00

Quick one: give measured pIC50 for Cc1nc(N)nc2c1C(=O)CC(c1ccc(F)cc1OC1CCCC1C)C2 (centres unmarked)
> 6.00

Quick one: give measured pIC50 for CCc1nc(N)nc2c1C(=O)CC(c1ccc(F)cc1-c1cncc(OC)n1)C2 (centres unmarked)
> 6.00

Quick one: give measured pIC50 for `COc1ncc(-c2cc(F)ccc2[C@@H]2CC(=O)c3c(C)nc(N)nc3C2)nc1OC`
> 6.00

Quick one: give measured pIC50 for COc1ccc(-c2cccnc2OC)c(C2CC(=O)c3c(C)nc(N)nc3C2)c1 (centres unmarked)
> 6.00

Quick one: give measured pIC50 for Cc1nc(N)nc2c1C(=O)CC(c1ccc(F)cc1-c1cccc3ccccc13)C2 (centres unmarked)
> 6.00

Quick one: give measured pIC50 for Cc1nc(N)nc2c1C(=O)CC(c1ncc[nH]1)C2 (centres unmarked)
< 5.00

Quick one: give measured pIC50 for Cc1nc(N)nc2c1C(=O)CC(c1ccccc1)C2NC(=O)c1ccccc1 (centres unmarked)
< 5.00

Quick one: give measured pIC50 for COc1ccc(-c2cccc(OC)n2)c(C2CC(=O)c3c(C)nc(N)nc3C2)c1 (centres unmarked)
> 6.00

Quick one: give measured pIC50 for `COc1ccc(F)c(-c2cc(F)ccc2[C@@H]2CC(=O)c3c(C)nc(N)nc3C2)n1`
> 6.00

Quick one: give measured pIC50 for CCc1nc(N)nc2c1C(=O)CC(c1ccc(F)cc1-c1ccccc1OC)C2 (centres unmarked)
5.00 to 6.00

Quick one: give measured pIC50 for COc1cncc(-c2scnc2C2CC(=O)c3c(C)nc(N)nc3C2)n1 (centres unmarked)
> 6.00

Quick one: give measured pIC50 for Cc1nc(N)nc2c1C(=O)CC(c1ccc(F)cc1-c1nccnc1Cl)C2 (centres unmarked)
5.00 to 6.00

###

- target.desc: His-tagged N-terminal ATP binding domain (amino acid residues 9-236) of HSP90α (Homo sapiens, UniProt P07900)
- assay.info: HSP90 inhibitor binding potency: TRF competition binding assay
- particulars: Table I; read-out: Hsp90 IC50 Range
Give IC50 for every item shown.

Quick one: give measured IC50 for CC(=O)Nc1ccccc1-c1ccccc1C1CC(=O)c2c(C)nc(N)nc2C1 (stereo not shown)
1000 to 10000 nM

Quick one: give measured IC50 for Cc1nc(N)nc2c1C(=O)CC(c1ccccc1-c1cccc(C(F)(F)F)c1)C2 (stereo not shown)
1000 to 10000 nM

Quick one: give measured IC50 for COc1ccc(C2CC(=O)c3c(C)nc(N)nc3C2)cc1 (stereo not shown)
1000 to 10000 nM

Quick one: give measured IC50 for Cc1nc(N)nc2c1C(=O)CC(c1ccccc1Cc1ccccc1)C2 (stereo not shown)
< 1000 nM

###

Give IC50 for every item shown.
- target.desc: His-tagged N-terminal ATP binding domain (amino acid residues 9-236) of HSP90α (Homo sapiens, UniProt P07900)
- assay.info: HSP90 inhibitor binding potency: TRF competition binding assay
- particulars: Table II; read-out: Hsp90 IC50 Range

Quick one: give measured IC50 for CCc1nc(N)nc2c1C(=O)CC(c1ccc(F)cc1-c1cccnc1OC)C2 (stereo not drawn)
1000 to 10000 nM

Quick one: give measured IC50 for CCc1c[nH]nc1-n1ccnc1C1CC(=O)c2c(C)nc(N)nc2C1 (stereo not drawn)
< 1000 nM

Quick one: give measured IC50 for COc1ccc(F)c(-c2cc(F)ccc2C2CC(=O)c3c(C)nc(N)nc3C2)c1 (stereo not drawn)
< 1000 nM

Quick one: give measured IC50 for COc1nccnc1-c1cc(F)ccc1C1CC(=O)c2c(C)nc(N)nc2C1 (stereo not drawn)
< 1000 nM

Quick one: give measured IC50 for CNc1cccc(-c2cc(F)ccc2C2CC(=O)c3c(C)nc(N)nc3C2)n1 (stereo not drawn)
1000 to 10000 nM

Quick one: give measured IC50 for `Cc1nc(N)nc2c1C(=O)C[C@H](c1ccc(F)cc1-c1cccc(F)n1)C2`
1000 to 10000 nM

Quick one: give measured IC50 for CCc1nc(N)nc2c1C(=O)CC(c1ccc(F)cc1-c1cccnc1)C2 (stereo not drawn)
< 1000 nM

Quick one: give measured IC50 for Cc1nc(N)nc2c1C(=O)CC(c1ccc(F)cc1-c1nccnc1NCCO)C2 (stereo not drawn)
1000 to 10000 nM

Quick one: give measured IC50 for COc1cncc(-c2cccc(F)c2C2CC(=O)c3c(C)nc(N)nc3C2)n1 (stereo not drawn)
1000 to 10000 nM

Quick one: give measured IC50 for CCOc1ncncc1-c1cc(F)ccc1C1CC(=O)c2c(C)nc(N)nc2C1 (stereo not drawn)
< 1000 nM

Quick one: give measured IC50 for CCc1ccccc1-n1ccnc1C1CC(=O)c2c(C)nc(N)nc2C1 (stereo not drawn)
< 1000 nM

Quick one: give measured IC50 for Nc1ncc2c(n1)CC(c1ccc(F)cc1-c1cccnc1F)CC2=O (stereo not drawn)
< 1000 nM

Quick one: give measured IC50 for Nc1ncc2c(n1)CC(c1ccccc1-c1cccc(F)n1)CC2=O (stereo not drawn)
< 1000 nM

Quick one: give measured IC50 for COc1nc(Cl)ncc1-c1cc(F)ccc1C1CC(=O)c2c(C)nc(N)nc2C1 (stereo not drawn)
< 1000 nM

Quick one: give measured IC50 for COc1ccc(-c2cncc(OC)n2)c(C2CC(=O)c3c(C)nc(N)nc3C2)c1 (stereo not drawn)
< 1000 nM

Quick one: give measured IC50 for COc1cccc(-c2scnc2C2CC(=O)c3c(C)nc(N)nc3C2)n1 (stereo not drawn)
< 1000 nM

Quick one: give measured IC50 for COc1cnc(-c2cc(F)ccc2C2CC(=O)c3c(C)nc(N)nc3C2)nc1OC (stereo not drawn)
< 1000 nM

Quick one: give measured IC50 for COc1nccc(-c2cc(F)ccc2C2CC(=O)c3c(C)nc(N)nc3C2)n1 (stereo not drawn)
> 10000 nM
